# IC50 per record follows
- Test system: human recombinant FGFR3 (Homo sapiens)
- Sequence (P22607 23-806): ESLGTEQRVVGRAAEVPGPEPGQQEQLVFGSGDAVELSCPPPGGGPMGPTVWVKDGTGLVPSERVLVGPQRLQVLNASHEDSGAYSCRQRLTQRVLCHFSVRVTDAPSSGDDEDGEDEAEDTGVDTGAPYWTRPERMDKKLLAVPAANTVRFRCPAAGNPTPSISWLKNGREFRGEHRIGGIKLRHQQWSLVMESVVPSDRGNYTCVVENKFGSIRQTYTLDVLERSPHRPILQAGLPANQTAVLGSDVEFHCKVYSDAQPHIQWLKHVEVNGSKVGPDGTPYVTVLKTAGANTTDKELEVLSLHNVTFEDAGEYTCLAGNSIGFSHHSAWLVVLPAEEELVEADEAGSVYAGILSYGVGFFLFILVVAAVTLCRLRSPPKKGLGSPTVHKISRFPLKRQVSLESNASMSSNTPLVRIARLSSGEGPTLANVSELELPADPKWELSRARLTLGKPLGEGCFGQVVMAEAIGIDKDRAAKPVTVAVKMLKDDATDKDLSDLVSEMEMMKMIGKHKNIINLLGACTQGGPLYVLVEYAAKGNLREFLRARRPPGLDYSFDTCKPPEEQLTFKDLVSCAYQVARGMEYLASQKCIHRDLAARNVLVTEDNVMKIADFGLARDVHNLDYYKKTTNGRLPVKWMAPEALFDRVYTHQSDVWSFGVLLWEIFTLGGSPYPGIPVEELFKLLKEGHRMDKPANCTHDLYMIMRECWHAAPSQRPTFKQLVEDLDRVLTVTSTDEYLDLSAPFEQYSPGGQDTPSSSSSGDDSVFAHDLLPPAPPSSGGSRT
- Assay info: FGFR3 enzyme assay (LabChip EZ Reader)
Your answer is read as nM, so omit the unit and give the number.

COc1cc(OC)c(F)c(COc2cnc(Nc3ccc(N4CCC(NCCO)CC4)cc3)nc2)c1F	2
COc1cc(Nc2ncc(OCc3c(F)c(OC)cc(OC)c3F)cn2)ccc1N1C[C@@H](C)N[C@@H](C)C1	1
COc1cc(Nc2ncc(OCc3c(F)c(OC)cc(OC)c3F)cn2)ccc1N1CCN(C2CCN(C)CC2)CC1	1
COc1cc(OC)c(F)c(COc2cnc(Nc3cc(CN4CCN(C)CC4)n(C)n3)nc2)c1F	5

Now consider a different compound.
Challenge: Find the recorded IC50 belonging to "COc1cc(OC)c(F)c(COc2cnc(Nc3cnn(C[C@@H](O)CO)c3)nc2)c1F" and report it.
Response given: 2
